system: mammary gland of lactating dairy cows; experiment: Field study of involution induction: change in lactose content of milk samples after a single intramammary infusion at dry-off; format: in vivo; details: difference in lactose concentration vs Day 0; Day 1 post treatment; single intramammary infusion, peptides 4 mg in 10 ml, casein hydrolyzate 20 ml
Square brackets hold non-standard residues; d marks the D form. Ends that are not written are not given here. pS = N[C@@H](COP(=O)(O)O)C(=O)O
Each record here notes measured Changes in Lactose content in milk samples, Day 1, Mean.
property_name: Changes in Lactose content in milk samples, Day 1, Mean

| substance | result |
| --- | --- |
| Lys-Ser(P)-Ser(P)-Ser(P)-Glu-Glu-NH2 (K[pS][pS][pS]EE-NH2; N-terminus assumed; SMILES NCCCC[C@H](N)C(=O)N[C@@H](COP(=O)(O)O)C(=O)N[C@@H](COP(=O)(O)O)C(=O)N[C@@H](COP(=O)(O)O)C(=O)N[C@@H](CCC(=O)O)C(=O)N[C@@H](CCC(=O)O)C(N)=O) [E(p), casein-derived peptide, positive control] | −0.354 |
| KSSSEE-NH2 | −0.368 |
| ESLSSSEE-NH2 [D] | −0.749 |

====

Each record here notes measured Changes in Somatic Cell Counts in milk samples, Day 1, Mean.
system: mammary gland of lactating dairy cows; test: Field study of involution induction: change in somatic cell counts in milk samples after a single intramammary infusion at dry-off; format: in vivo; details: change vs Day 0, calculated from log transformation of raw data; Day 1 post treatment; single intramammary infusion, peptides 4 mg in 10 ml, casein hydrolyzate 20 ml
Square brackets hold non-standard residues; d marks the D form. Ends that are not written are not given here. pS = N[C@@H](COP(=O)(O)O)C(=O)O
property_name: Changes in Somatic Cell Counts in milk samples, Day 1, Mean

| substance | recorded_number |
| --- | --- |
| KKSLSS-NH2 [A] | 0.911 |
| ESLSSSEE-NH2 [D] | 0.387 |
| Lys-Lys-Ser(P)-Ser(P)-Ser(P)-NH2 (KK[pS][pS][pS]-NH2; N-terminus assumed; SMILES NCCCC[C@H](NC(=O)[C@@H](N)CCCCN)C(=O)N[C@@H](COP(=O)(O)O)C(=O)N[C@@H](COP(=O)(O)O)C(=O)N[C@@H](COP(=O)(O)O)C(N)=O) [B(p)] | 3.129 |
| Lys-Lys-Ser(P)-Ser(P)-NH2 (KK[pS][pS]-NH2; N-terminus assumed; SMILES NCCCC[C@H](NC(=O)[C@@H](N)CCCCN)C(=O)N[C@@H](COP(=O)(O)O)C(=O)N[C@@H](COP(=O)(O)O)C(N)=O) [C(p)] | −0.129 |
| Lys-Ser(P)-Ser(P)-Ser(P)-Glu-Glu-NH2 (K[pS][pS][pS]EE-NH2; N-terminus assumed; SMILES NCCCC[C@H](N)C(=O)N[C@@H](COP(=O)(O)O)C(=O)N[C@@H](COP(=O)(O)O)C(=O)N[C@@H](COP(=O)(O)O)C(=O)N[C@@H](CCC(=O)O)C(=O)N[C@@H](CCC(=O)O)C(N)=O) [E(p), casein-derived peptide, positive control] | 0.060 |
| Lys-Lys-Ser-Ser-NH2 [C] | 0.511 |
| Glu-Ser(P)-Leu-Ser(P)-Ser(P)-Ser(P)-Glu-Glu-NH2 (E[pS]L[pS][pS][pS]EE-NH2; N-terminus assumed; SMILES CC(C)C[C@H](NC(=O)[C@H](COP(=O)(O)O)NC(=O)[C@@H](N)CCC(=O)O)C(=O)N[C@@H](COP(=O)(O)O)C(=O)N[C@@H](COP(=O)(O)O)C(=O)N[C@@H](COP(=O)(O)O)C(=O)N[C@@H](CCC(=O)O)C(=O)N[C@@H](CCC(=O)O)C(N)=O) [D(p), casein-derived peptide, positive control] | 0.383 |
| Lys-Lys-Ser-Ser-Ser-NH2 [B] | 0.109 |
| Lys-Lys-Ser(P)-Leu-Ser(P)-Ser(P)-Ser(P)-NH2 (KK[pS]L[pS][pS][pS]-NH2; N-terminus assumed; SMILES CC(C)C[C@H](NC(=O)[C@H](COP(=O)(O)O)NC(=O)[C@H](CCCCN)NC(=O)[C@@H](N)CCCCN)C(=O)N[C@@H](COP(=O)(O)O)C(=O)N[C@@H](COP(=O)(O)O)C(=O)N[C@@H](COP(=O)(O)O)C(N)=O) [A(p)] | 0.592 |
| KSSSEE-NH2 | −0.186 |
